Recorded below: IC50, system PIK3CB (Human).

# example entries with known answers
- Compound: "Cn1cc(-c2cccc(C[C@H]3COCCN3c3nc4c(s3)C(=O)CC(C)(C)C4)c2)cn1"
  Measured metric: "IC50"
  Reported result: "≤ 50 µM"
- Compound: "CC1(C)CNC(=O)c2sc(N3CCOCC3Cc3cncc4ccccc34)nc2C1 (stereo not given)"
  Measured metric: "IC50"
  Reported result: "≤ 50 µM"
- Compound: "CSc1ccc(C2CC(=O)c3sc(N4CCOCC4)nc3C2)cc1 (stereo not given)"
  Measured metric: "IC50"
  Reported result: "≤ 50 µM"

## Task Recorded IC50 for `CC1(C)CC(=O)c2sc(N3CCOC[C@@H]3Cc3cccc(-c4ccc5ccccc5c4)c3)nc2C1` , please?
## Result ≤ 50 µM

## Task For the compound shown here, `CC1(C)CC(=O)c2sc(N3CCOC[C@@H]3CSc3ccccc3)nc2C1` , give the reported IC50.
## Result ≤ 50 µM

Source of measurements: the Kinase Knowledgebase extract (Sharma et al. 2016)
